Molecular target: T1, human GPC3-His protein (human, UniProt P51654 25-559)
T1 construct: Bought protein; also called human GPC3 protein; not shown: His tag
Experiment: ELISA, coated human GPC3, antibody 10 nM;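 also: plate coated with antigen at 1 µg/mL, antibodies bound 2 h at 37 °C, detected via HRP-conjugated secondary antibody and TMB substrate, absorbance read after acid stop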
Quantity name: OD450 nm (OD450)

{"columns": ["Binder", "Result unit", "Value"],
 "data": [
  ["F3.38.7 human-murine chimeric antibody (antibody, human IgG1, kappa, V domains shown) VH: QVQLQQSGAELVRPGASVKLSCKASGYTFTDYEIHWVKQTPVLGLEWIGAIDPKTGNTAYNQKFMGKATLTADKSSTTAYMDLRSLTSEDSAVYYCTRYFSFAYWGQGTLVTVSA VL: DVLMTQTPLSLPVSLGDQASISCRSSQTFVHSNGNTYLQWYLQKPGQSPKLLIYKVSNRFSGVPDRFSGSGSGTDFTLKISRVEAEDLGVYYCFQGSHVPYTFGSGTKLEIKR", "OD450", 2.44],
  ["F1.57.21 human-murine chimeric antibody (antibody, human IgG1, kappa, V domains shown) VH: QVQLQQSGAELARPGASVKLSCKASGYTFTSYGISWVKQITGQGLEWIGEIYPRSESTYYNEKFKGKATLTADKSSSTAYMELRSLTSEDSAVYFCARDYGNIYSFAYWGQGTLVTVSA VL: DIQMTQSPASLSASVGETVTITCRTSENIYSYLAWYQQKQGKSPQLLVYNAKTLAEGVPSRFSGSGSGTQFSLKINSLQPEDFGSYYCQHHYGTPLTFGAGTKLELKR", "OD450", 2.02],
  ["F1.145.22 human-murine chimeric antibody (antibody, human IgG1, kappa, V domains shown) VH: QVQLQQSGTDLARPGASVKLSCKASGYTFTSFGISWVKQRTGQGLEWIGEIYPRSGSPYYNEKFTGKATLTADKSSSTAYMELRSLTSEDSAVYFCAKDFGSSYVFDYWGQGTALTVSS VL: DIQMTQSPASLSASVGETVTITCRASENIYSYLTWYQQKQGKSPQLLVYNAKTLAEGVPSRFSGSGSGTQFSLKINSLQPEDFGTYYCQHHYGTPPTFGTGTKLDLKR", "OD450", 2.35]
]}
